Origin of the recorded values: patent US20110082130A1

# Target Desc: chimeric human H3 receptor (Homo sapiens, UniProt Q9Y5N1)
# Construct: made in house; host or cells: Sf9 insect cells (baculovirus); P2 membrane preparation
# Sequence (Q9Y5N1 with tags, fused parts or gaps): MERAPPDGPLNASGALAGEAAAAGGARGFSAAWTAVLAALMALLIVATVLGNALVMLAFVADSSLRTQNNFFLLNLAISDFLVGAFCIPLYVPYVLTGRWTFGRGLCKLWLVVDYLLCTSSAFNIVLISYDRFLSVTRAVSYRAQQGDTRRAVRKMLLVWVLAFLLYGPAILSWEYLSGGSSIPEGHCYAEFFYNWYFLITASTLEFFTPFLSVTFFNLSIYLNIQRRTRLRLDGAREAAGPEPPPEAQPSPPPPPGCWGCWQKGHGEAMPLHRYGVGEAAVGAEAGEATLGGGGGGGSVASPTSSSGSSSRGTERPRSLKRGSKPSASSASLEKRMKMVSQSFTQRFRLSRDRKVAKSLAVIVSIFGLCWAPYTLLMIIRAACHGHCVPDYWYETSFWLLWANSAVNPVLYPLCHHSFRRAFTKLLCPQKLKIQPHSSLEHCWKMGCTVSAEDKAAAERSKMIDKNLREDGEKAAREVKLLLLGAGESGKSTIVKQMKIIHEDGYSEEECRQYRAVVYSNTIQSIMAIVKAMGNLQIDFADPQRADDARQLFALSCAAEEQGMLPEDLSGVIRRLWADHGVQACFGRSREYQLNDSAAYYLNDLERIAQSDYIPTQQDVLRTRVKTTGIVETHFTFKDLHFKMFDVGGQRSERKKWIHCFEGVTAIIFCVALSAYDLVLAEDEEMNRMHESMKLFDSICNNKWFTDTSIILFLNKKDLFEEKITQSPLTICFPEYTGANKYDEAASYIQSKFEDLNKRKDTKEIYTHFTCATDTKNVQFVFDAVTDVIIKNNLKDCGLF
# Measurement Description: Chimeric human H3 receptor GTP binding assay (agonist-stimulated GTP-gamma35S binding, Example 7)
# Assay type: biochemical
# Test Conditions: assay of Example 7; "*" in Ki of Table II
# Procedure: This Example illustrates a representative assay for evaluating agonist-stimulated GTP-gamma^35S binding (“GTP binding”) activity. […] A compound analyzed in this assay is referred to herein as a “test compound.” […] After a 60-min incubation at room temperature, reactions are terminated by vacuum filtration over WHATMAN GF/C filters (pre-soaked in wash buffer, 0.1% BSA) followed by washing with ice-cold wash buffer (50 mM Tris pH 7.4, 120 mM NaCl). […] Data is expressed as percent above basal (baseline). […]
For each record, write down the corresponding Ki.

Field: example entries. Status: answers known.
Compound	Ki
COc1cc(F)c(-c2nc3c(s2)CN(CC(=O)N2CCN(C4CCC4)CC2)CC3)cc1F [Compound 323]	< 1 µM
CS(=O)(=O)c1cccc(-c2ccc3c(c2)CCN(CC(=O)N2CCN(C4CCCCC4)CC2)C3)c1 [Compound 395]	< 1 µM
O=C(CN1CCc2nc(-c3cc(Cl)ccc3Cl)sc2C1)N1CCN(C2CCC2)CC1 [Compound 364]	< 1 µM
O=C(CN1CCc2nc(-c3ccc(Cl)cc3)sc2C1)N1CCN(C2CCC2)CC1 [Compound 296]	< 1 µM
COc1ccc2cc(-c3nc4c(s3)CN(CC(=O)N3CCN(C5CCC5)CC3)CC4)ccc2c1 [Compound 324]	< 1 µM

# batch: return Ki for each of the 4 compounds below
1. COc1cccc(-c2ccc3c(c2)CCN(CC(=O)N2CCN(C4CCC4)CC2)C3)c1 [Compound 475]
2. O=C(CN1CCc2nc(-c3cccc4c3oc3ccccc34)sc2C1)N1CCN(C2CCC2)CC1 [Compound 342]
3. O=C(CN1CCc2nc(-c3ccc(Cl)cc3Cl)sc2C1)N1CCN(C2CCC2)CC1 [Compound 359]
4. Cc1ccc(-c2nc3c(s2)CN(CC(=O)N2CCN(C4CCC4)CC2)CC3)cc1 [Compound 305]

RESULT:
1: < 1 µM; 2: < 1 µM; 3: < 1 µM; 4: < 1 µM

Batch request: Ki for each of the following compounds.
1. O=C(CN1CCc2cc(-c3ccc4c(c3)OCO4)ccc2C1)N1CCN(C2CCCC2)CC1 [Compound 378]
2. O=C(CN1CCc2nc(-c3ccccc3)sc2C1)N1CCN(C2CCC2)CC1 [Compound 294]
3. Cc1ccc(F)c(-c2nc3c(s2)CN(CC(=O)N2CCN(C4CCC4)CC2)CC3)c1Cl [Compound 365]
4. O=C(CN1CCc2nc(-c3ccccc3F)sc2C1)N1CCN(C2CCC2)CC1 [Compound 299]
5. Cc1cc(-c2nc3c(s2)CN(CC(=O)N2CCN(C4CCC4)CC2)CC3)ccc1F [Compound 303]
6. COc1ccc(Cl)cc1-c1nc2c(s1)CN(CC(=O)N1CCN(C3CCC3)CC1)CC2 [Compound 338]
7. CCOC(=O)c1ccc(-c2nc3c(s2)CN(CC(=O)N2CCN(C4CCC4)CC2)CC3)cc1 [Compound 375]

RESULT:
1. < 1 µM
2. < 1 µM
3. < 1 µM
4. < 1 µM
5. < 1 µM
6. < 1 µM
7. < 1 µM

----------
# Target Desc: chimeric human H3 receptor (Homo sapiens, UniProt Q9Y5N1)
# Construct: made in house; host or cells: Sf9 insect cells (baculovirus); P2 membrane preparation
# Measurement Description: Chimeric human H3 receptor screening GTP binding assay (inhibition of histamine-stimulated GTP-gamma35S binding, Example 8)
# Type: biochemical
# Test Conditions: 4 μM of the compound, 1 μM histamine, "†" in Ki of Table II, read-out: percent inhibition of the signal obtained with 1 μM histamine
Outcome Measure: inhibition at 4 µM

// solved cases for inhibition at 4 µM follow
Smiles Representation	Meas Value
CC(C)c1ccc(-c2ccc3c(c2)CCN(CC(=O)N2CCN(C4CCC4)CC2)C3)cc1	≥ 90%
CC(C)(C)c1ccc(-c2ccc3c(c2)CCN(CC(=O)N2CCN(C4CCCCC4)CC2)C3)cc1	≥ 90%
Cc1ccc(-c2ccc3c(c2)CCN(CC(=O)N2CCN(C(C)C)CC2)C3)cc1C	≥ 90%
CC(C)N1CCN(C(=O)CN2CCc3cc(-c4ccc(C(C)(C)C)cc4)ccc3C2)CC1	≥ 90%
CCc1cccc(-c2ccc3c(c2)CCN(CC(=O)N2CCN(C(C)C)CC2)C3)c1	≥ 90%
Cc1ccc(-c2ccc3c(c2)CCN(CC(=O)N2CCN(C4CCCC4)CC2)C3)c(F)c1	≥ 90%
Cc1ccc(-c2ccc3c(c2)CCN(CC(=O)N2CCN(C4CCCCC4)CC2)C3)cc1C	≥ 90%

Let us move to another entry and its inhibition at 4 µM.
QUERY: Give the reported value of inhibition at 4 µM for this record: `CCc1ccc(-c2ccc3c(c2)CCN(CC(=O)N2CCN(C(C)C)CC2)C3)cc1`
RESULT: ≥ 90%

----------
What inhibition at 4 µM was measured for each of the following?
# Target Desc: chimeric human H3 receptor (Homo sapiens, UniProt Q9Y5N1)
# Construct: made in house; host or cells: Sf9 insect cells (baculovirus); P2 membrane preparation
# Measurement Description: Chimeric human H3 receptor screening GTP binding assay (inhibition of histamine-stimulated GTP-gamma35S binding, Example 8)
# Format: biochemical
# Test Conditions: Table II "Ki", symbol †, 4 μM of the compound, 1 μM histamine, read-out: percent inhibition of the signal obtained with 1 μM histamine

Look over these answered cases.
Compound	Meas Value
COc1ccccc1-c1ccc2c(c1)CCN(CC(=O)N1CCN(C3CCCCC3)CC1)C2 [Compound 553]	≥ 90%
O=C(CN1CCc2cc(-c3ccc(Cl)c(Cl)c3)ccc2C1)N1CCN(C2CCCC2)CC1 [Compound 595]	≥ 90%
CSc1cccc(-c2ccc3c(c2)CCN(CC(=O)N2CCN(C4CCC4)CC2)C3)c1 [Compound 494]	≥ 90%
COc1ccc(OC)c(-c2ccc3c(c2)CCN(CC(=O)N2CCN(C4CCC4)CC2)C3)c1 [Compound 559]	≥ 90%
CCCOc1ccc(-c2ccc3c(c2)CCN(CC(=O)N2CCN(C(C)C)CC2)C3)cc1 [Compound 547]	≥ 90%
CSc1cccc(-c2ccc3c(c2)CCN(CC(=O)N2CCN(C4CCCCC4)CC2)C3)c1 [Compound 496]	≥ 90%
COc1ccc(-c2ccc(-c3ccc4c(c3)CCN(CC(=O)N3CCN(C5CCCC5)CC3)C4)cc2)cc1 [Compound 499]	≥ 90%
CC(C)N1CCN(C(=O)CN2CCc3cc(-c4cc(F)ccc4F)ccc3C2)CC1 [Compound 585]	≥ 90%
O=C(CN1CCc2cc(-c3cccc(OC(F)(F)F)c3)ccc2C1)N1CCN(C2CCC2)CC1 [Compound 490]	≥ 90%
CC1CCCC1N1C[C@@H]2C[C@H]1CN2C(=O)CN1CCc2cc(-c3cncnc3)ccc2C1 (stereo in doubt) [Compound 615]	≥ 90%

// each listed compound needs a value for inhibition at 4 µM
1. CC(C)C(C)N1C[C@@H]2C[C@H]1CN2C(=O)CN1CCc2cc(-c3cncnc3)ccc2C1 (stereo in doubt) [Compound 608]
2. COc1ccc(OC)c(-c2ccc3c(c2)CCN(CC(=O)N2CCN(C4CCCC4)CC2)C3)c1 [Compound 560]
3. COc1ccc(-c2ccc3c(c2)CCN(CC(=O)N2CCN(C4CCCCC4)CC2)C3)c(OC)c1 [Compound 565]
4. COc1ccc(-c2ccc3c(c2)CCN(CC(=O)N2CCN(C4CCC4)CC2)C3)c(OC)c1 [Compound 563]

RESULT:
["≥ 90%", "≥ 90%", "≥ 90%", "≥ 90%"]

Hi, could you look up inhibition at 4 µM for each item in my list?
1. O=C(CN1CCc2cc(-c3cc(F)cc(F)c3)ccc2C1)N1CCN(C2CCCC2)CC1 [Compound 597]
2. COCC(C)Nc1ccc2c(n1)CCN(CC(=O)N1CCN(C3CCC3)CC1)C2 (stereo not shown) [Compound 665]

RESULT:
1. ≥ 90%
2. ≥ 90%

----------
# Target Desc: chimeric human H3 receptor (Homo sapiens, UniProt Q9Y5N1)
# Construct: made in house; host or cells: Sf9 insect cells (baculovirus); P2 membrane preparation
# Measurement Description: Chimeric human H3 receptor GTP binding assay (agonist-stimulated GTP-gamma35S binding, Example 7)
# Format: biochemical
# Test Conditions: Table II; "*" = Ki in assay of Example 7 less than 1 micromolar
pKi: −log10 of the molar value.
Outcome Measure: pKi

Molecule	Meas Value
O=C(CN1CCc2nc(N3CCCC3)ccc2C1)N1CCN(C2CCC2)CC1 [Compound 176]	> 6.00
O=C(CN1CCc2nc(Cl)ccc2C1)N1CCN(C2CCC2)CC1 [Compound 168]	> 6.00
O=C(CN1CCc2cc(-n3ncc4ccccc43)ccc2C1)N1CCN(C2CCC2)CC1 [Compound 230]	> 6.00
CC(C)(C)c1ncc2c(n1)CCN(CC(=O)N1CCN(C3CCC3)CC1)C2 [Compound 277]	> 6.00
O=C(NC1CCC1)c1ccc2c(n1)CCN(CC(=O)N1CCN(C3CCC3)CC1)C2 [Compound 125]	> 6.00

Could you now look at the following molecule, please?
QUERY: Would you please give the reported pKi of CCOC(=O)c1cnc2c(c1)CCN(CC(=O)N1CCN(C3CCC3)C(C)C1)C2 (stereo not drawn) [Compound 117] with chimeric human H3 receptor (Homo sapiens, UniProt Q9Y5N1)?
RESULT: > 6.00
